measurement target: UniProtKB P11362
Sequence (P11362 whole entry, looked up): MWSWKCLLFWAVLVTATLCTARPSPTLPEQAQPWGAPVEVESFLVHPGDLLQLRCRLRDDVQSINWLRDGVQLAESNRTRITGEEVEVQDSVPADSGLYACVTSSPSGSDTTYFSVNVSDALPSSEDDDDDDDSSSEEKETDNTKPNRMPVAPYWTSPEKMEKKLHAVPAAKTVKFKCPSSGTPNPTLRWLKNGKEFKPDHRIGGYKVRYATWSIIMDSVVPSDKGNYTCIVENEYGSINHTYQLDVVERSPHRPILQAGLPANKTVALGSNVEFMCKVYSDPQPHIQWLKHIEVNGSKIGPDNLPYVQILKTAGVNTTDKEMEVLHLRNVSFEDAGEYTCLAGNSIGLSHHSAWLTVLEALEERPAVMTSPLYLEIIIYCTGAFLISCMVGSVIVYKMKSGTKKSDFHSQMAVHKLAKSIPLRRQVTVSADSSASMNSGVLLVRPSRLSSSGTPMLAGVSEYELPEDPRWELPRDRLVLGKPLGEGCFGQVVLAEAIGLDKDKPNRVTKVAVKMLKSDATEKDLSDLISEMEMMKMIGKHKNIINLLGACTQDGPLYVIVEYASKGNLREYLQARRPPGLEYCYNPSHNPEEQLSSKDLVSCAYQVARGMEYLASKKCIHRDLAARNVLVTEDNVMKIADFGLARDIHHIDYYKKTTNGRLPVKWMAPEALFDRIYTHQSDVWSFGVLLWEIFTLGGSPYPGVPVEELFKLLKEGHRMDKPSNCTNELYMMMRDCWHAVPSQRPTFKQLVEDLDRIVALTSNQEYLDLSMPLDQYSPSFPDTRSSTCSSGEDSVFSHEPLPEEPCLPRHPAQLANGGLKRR
assay name: pIC50, kinobeads binding competition
conditions used: cell material: Lysate mix
quantity kind: pIC50

Worked examples, 5 compounds total:
{"compound": "C#CCNC(=O)c1cc(Nc2cc(C)[nH]n2)nc(N2CCN(Cc3ccc(S(=O)(=O)F)cc3)CC2)n1", "pIC50": "< 4.52"}
{"compound": "CCNC(=O)c1cc(Nc2cc(C)[nH]n2)nc(N2CCN(Cc3ccc(S(=O)(=O)F)cc3)CC2)n1", "pIC50": "< 4.52"}
{"compound": "Cc1cc(Nc2cc(C(=O)NCCNC(=O)OC3CC/C=C/CCC3)nc(N3CCN(Cc4ccc(S(=O)(=O)F)cc4)CC3)n2)n[nH]1 (stereo unspecified)", "pIC50": "< 4.52"}
{"compound": "CCNC(=O)c1cc(Nc2cc(C3CC3)[nH]n2)nc(N2CCN(Cc3ccc(S(=O)(=O)F)cc3)CC2)n1", "pIC50": 5.24}
{"compound": "C#CCNC(=O)c1cc(Nc2cc(C3CC3)[nH]n2)nc(N2CCN(Cc3ccc(S(=O)(=O)F)cc3)CC2)n1", "pIC50": 4.81}

Now, please, on to the next compound.
Prompt: If you can, please state the reported pIC50 value of O=C(NCCNC(=O)c1cc(Nc2cc(C3CC3)[nH]n2)nc(N2CCN(Cc3ccc(S(=O)(=O)F)cc3)CC2)n1)OC1CC/C=C/CCC1 (stereo unspecified) .
Completion: < 4.52

----------
Below: a set of entries, each annotated with reported pIC50.
measurement target: UniProt:Q9UK32
Sequence (Q9UK32 whole entry): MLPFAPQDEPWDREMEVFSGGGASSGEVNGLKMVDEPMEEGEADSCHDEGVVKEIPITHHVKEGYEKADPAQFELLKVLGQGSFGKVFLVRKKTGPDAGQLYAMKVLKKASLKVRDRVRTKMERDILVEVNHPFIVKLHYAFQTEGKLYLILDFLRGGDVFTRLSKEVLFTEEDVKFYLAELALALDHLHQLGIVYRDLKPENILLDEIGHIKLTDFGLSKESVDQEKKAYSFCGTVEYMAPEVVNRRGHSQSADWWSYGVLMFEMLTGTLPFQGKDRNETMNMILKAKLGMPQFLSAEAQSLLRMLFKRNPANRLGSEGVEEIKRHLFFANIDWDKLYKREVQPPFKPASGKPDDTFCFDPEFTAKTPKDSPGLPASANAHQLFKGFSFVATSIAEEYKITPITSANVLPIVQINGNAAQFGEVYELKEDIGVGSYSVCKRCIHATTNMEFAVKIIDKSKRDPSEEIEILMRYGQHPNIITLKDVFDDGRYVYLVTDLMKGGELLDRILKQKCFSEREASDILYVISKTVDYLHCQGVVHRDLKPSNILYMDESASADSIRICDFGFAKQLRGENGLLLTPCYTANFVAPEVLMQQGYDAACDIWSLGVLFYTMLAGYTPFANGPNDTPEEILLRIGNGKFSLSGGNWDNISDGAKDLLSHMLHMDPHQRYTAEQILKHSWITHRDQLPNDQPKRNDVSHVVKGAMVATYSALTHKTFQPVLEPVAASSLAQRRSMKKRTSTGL
assay name: pIC50, kinobeads binding competition
conditions used: cell material: Lysate mix

{"molecule": "Cc1cc(Nc2cc(C(=O)NCCNC(=O)OC3CC/C=C/CCC3)nc(N3CCN(Cc4ccc(S(=O)(=O)F)cc4)CC3)n2)n[nH]1 (stereo not given)", "quantity kind": "pIC50", "observed value": "< 4.52"}

Prompt: If you can, please state the reported pIC50 value of `C#CCNC(=O)c1cc(Nc2cc(C3CC3)[nH]n2)nc(N2CCN(Cc3ccc(S(=O)(=O)F)cc3)CC2)n1` .
Completion: 4.94

Prompt: If you can, please state the reported pIC50 value of O=C(NCCNC(=O)c1cc(Nc2cc(C3CC3)[nH]n2)nc(N2CCN(Cc3ccc(S(=O)(=O)F)cc3)CC2)n1)OC1CC/C=C/CCC1 (stereo not given) .
Completion: < 4.52

Prompt: If you can, please state the reported pIC50 value of `CCNC(=O)c1cc(Nc2cc(C3CC3)[nH]n2)nc(N2CCN(Cc3ccc(S(=O)(=O)F)cc3)CC2)n1` .
Completion: 4.87

Prompt: If you can, please state the reported pIC50 value of `C#CCNC(=O)c1cc(Nc2cc(C)[nH]n2)nc(N2CCN(Cc3ccc(S(=O)(=O)F)cc3)CC2)n1` .
Completion: < 4.52

----------
measurement target: EPHA1 (UniProt P21709)
Sequence (P21709 whole entry): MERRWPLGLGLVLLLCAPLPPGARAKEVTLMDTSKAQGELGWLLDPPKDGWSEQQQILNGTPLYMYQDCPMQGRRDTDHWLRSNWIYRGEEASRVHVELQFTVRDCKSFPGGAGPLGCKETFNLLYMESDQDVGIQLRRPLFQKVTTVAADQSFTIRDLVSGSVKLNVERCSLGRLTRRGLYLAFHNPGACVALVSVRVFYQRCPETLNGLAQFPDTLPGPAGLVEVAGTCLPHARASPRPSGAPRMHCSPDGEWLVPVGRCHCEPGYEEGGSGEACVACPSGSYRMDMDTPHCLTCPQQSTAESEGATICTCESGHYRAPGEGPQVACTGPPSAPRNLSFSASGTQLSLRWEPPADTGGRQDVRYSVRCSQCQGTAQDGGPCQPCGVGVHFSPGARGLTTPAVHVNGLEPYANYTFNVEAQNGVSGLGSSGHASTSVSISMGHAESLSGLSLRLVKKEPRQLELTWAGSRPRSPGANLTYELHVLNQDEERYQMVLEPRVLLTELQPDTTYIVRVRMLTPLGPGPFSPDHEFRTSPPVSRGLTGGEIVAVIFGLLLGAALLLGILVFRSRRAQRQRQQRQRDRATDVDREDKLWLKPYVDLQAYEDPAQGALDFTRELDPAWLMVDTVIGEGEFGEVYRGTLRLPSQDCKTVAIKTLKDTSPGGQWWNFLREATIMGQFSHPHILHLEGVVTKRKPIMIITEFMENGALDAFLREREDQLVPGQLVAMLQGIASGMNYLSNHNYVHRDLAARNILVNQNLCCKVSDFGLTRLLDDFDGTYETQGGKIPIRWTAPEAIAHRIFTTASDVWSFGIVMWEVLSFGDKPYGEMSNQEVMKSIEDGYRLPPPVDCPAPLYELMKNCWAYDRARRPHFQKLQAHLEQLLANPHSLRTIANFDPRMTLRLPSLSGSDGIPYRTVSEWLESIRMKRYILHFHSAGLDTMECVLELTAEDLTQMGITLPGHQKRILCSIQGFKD
assay name: pIC50, kinobeads binding competition
conditions used: cell material: Lysate mix
Below: a set of entries, each annotated with reported pIC50.

{"molecule": "C#CCNC(=O)c1cc(Nc2cc(C3CC3)[nH]n2)nc(N2CCN(Cc3ccc(S(=O)(=O)F)cc3)CC2)n1", "pIC50": 4.66}

Prompt: If you can, please state the reported pIC50 value of O=C(NCCNC(=O)c1cc(Nc2cc(C3CC3)[nH]n2)nc(N2CCN(Cc3ccc(S(=O)(=O)F)cc3)CC2)n1)OC1CC/C=C/CCC1 (stereo not given) .
Completion: < 4.52

Where these numbers come from: the supplement of paper PMC12076712
